Property: melting point

Consider the reported melting point for these compounds:
Incoming: Give the reported value of melting point for this record: COc1cc(OCCCO)c(C=CC(=O)c2ccc(S(=O)(=O)Nc3cc(C)on3)cc2)cc1-c1cccs1
Outgoing: 178 to 182 °C

Incoming: Give the reported value of melting point for this record: CCOc1nc(O)c(C#N)s1
Outgoing: 132 °C

Further cases:
Incoming: Give the reported value of melting point for this record: CCCN(CCC)CC(=O)OC1CC2(C)C(C(=O)CO)CCC2C2CCC3CC(O)CCC3(C)C12 (centres undefined)
Outgoing: 98 to 102 °C

Incoming: Give the reported value of melting point for this record: CCCOC(=O)c1cc(-n2c(OC)nc(C(F)(F)F)c(F)c2=O)c(F)cc1Cl
Outgoing: 76 to 78 °C

Incoming: Give the reported value of melting point for this record: CC(C)(C)c1cc(CC#Cc2ccc(C(=O)O)c(O)c2)cc(C(C)(C)C)c1O
Outgoing: 205 to 206 °C

====

Property: melting point

Consider the reported melting point for these compounds:
Incoming: Give the reported value of melting point for this record: COc1ccc(-c2nc(-c3ccccc3)ccc2C(=O)O)cc1OC
Outgoing: 178 °C

Incoming: Give the reported value of melting point for this record: Cc1nccc2c3ccc(OCCC(C)C)cc3n(CCC(C)C)c12
Outgoing: 106 °C

Incoming: Give the reported value of melting point for this record: NCC1Cc2cc(C(F)(F)F)cc(-c3ccc(Cl)cc3)c2O1 (stereo not given)
Outgoing: > 250 °C

Further cases:
Incoming: Give the reported value of melting point for this record: CCCCN(CCCC)c1ccc(C=CC2=C(C#N)C(=C(C#N)C#N)OC2(C)C(F)(F)F)c(OC)c1 (stereo not given)
Outgoing: 211 to 213 °C

Incoming: Give the reported value of melting point for this record: CC(=O)c1cn(S(=O)(=O)c2ccccc2)c2nccc(Cl)c12
Outgoing: 160 to 162 °C

Incoming: Give the reported value of melting point for this record: C[C@@H]1NC(=O)[C@H]2Cc3c([nH]c4ccccc34)[C@@H](c3ccc4occc4c3)N2C1=O
Outgoing: 150 to 151 °C

Incoming: Give the reported value of melting point for this record: CC(C)(C)OC(=O)CC(=O)c1cc2ccccc2cc1O
Outgoing: 80 to 84 °C

====

Property: melting point (°C)

P: CCOC(=O)C1=C(C)NC(C=O)=C(C(=O)OCC)C1c1cccc(O)c1 (stereo not given)
Q: O=c1c(CCCCO)c(O)c2cccnc2n1-c1ccccc1
Incoming: Quick one: lower melting point, P or Q ? Refer to your chosen entry by its label in the reply.
Outgoing: P

====

Property: melting point

Incoming: Give the reported value of melting point for this record: CC(=O)Oc1ccc(-c2cc3ccccc3[nH]2)cc1
Outgoing: 203 °C

Further cases:
Incoming: Give the reported value of melting point for this record: Cc1nc2cccc(NC(=O)CCl)c2c(=O)n1C1CCC(=O)NC1=O (stereo not given)
Outgoing: 275 to 277 °C

Incoming: Give the reported value of melting point for this record: Cc1c(OCC(F)(F)F)ccnc1CSc1nc2ccccc2[nH]1
Outgoing: 142 to 144 °C

Incoming: Give the reported value of melting point for this record: C=Cc1ccc(COc2ccc(CCl)cc2)cc1
Outgoing: 110 to 112 °C

Incoming: Give the reported value of melting point for this record: O=C(Nc1ccccc1)c1cc(NC(=S)Nc2cc(Cl)cc(Cl)c2)ccc1F
Outgoing: 195 to 196 °C

====

Entries and their melting point

Consider the reported melting point for these compounds:
Incoming: Give the reported value of melting point for this record: O=c1[nH]cc(Cc2ccccc2)c2ccccc12
Outgoing: 217 to 220 °C

Incoming: Give the reported value of melting point for this record: N#CCC(=O)NCc1cccc(Cl)c1
Outgoing: 123 to 125 °C

Incoming: Give the reported value of melting point for this record: CC(=O)NCc1ccc(CN2CCN(c3ccc(F)cc3)CC2)cc1Cl
Outgoing: 141 to 142 °C

Incoming: Give the reported value of melting point for this record: CCCCc1nnc2n1-c1sc3c(c1C(c1ccccc1Cl)=NC2)CCNC3
Outgoing: 224 °C

Incoming: Give the reported value of melting point for this record: CC12CCC(C1)C1(C)Oc3ccc(C(=O)c4ccc(C(=O)O)cc4)cc3C21C (stereo unspecified)
Outgoing: 262 to 264 °C

Incoming: Give the reported value of melting point for this record: CCC(CC(=O)NC(=O)OC(C)(C)C)Nc1ccc(OC)cc1 (stereo unspecified)
Outgoing: 65 to 66 °C

Incoming: Give the reported value of melting point for this record: O=C(Cn1ccnc1)c1cccc2ccccc12
Outgoing: 114 to 117 °C

Incoming: Give the reported value of melting point for this record: COC(=O)Nc1nc2cc(C)[nH]c2c(=O)[nH]1
Outgoing: 234 to 236 °C

Further cases:
Incoming: Give the reported value of melting point for this record: CC1Sc2nc(SCc3ccccc3)nn2C1=O (stereo unspecified)
Outgoing: 85 to 87 °C

Incoming: Give the reported value of melting point for this record: Nc1ccc(Cl)cc1C(=O)Nc1ccc(S(=O)(=O)N2CCOCC2)cc1
Outgoing: 229 to 231 °C

Incoming: Give the reported value of melting point for this record: CN(C)C=C1CCCc2cc(N3C[C@H](CNC(=O)OC(C)(C)C)OC3=O)ccc2C1=O
Outgoing: 157 to 160 °C

====

Entries and their melting point

Incoming: Give the reported value of melting point for this record: COc1cccc(C(=O)Nc2nc(-c3cccc(C#N)c3)c(-c3ccncn3)s2)c1
Outgoing: 255 to 256 °C

Incoming: Give the reported value of melting point for this record: O=C(O)c1cc(Br)ccc1NCCC=C1c2ccccc2CCc2ccccc21
Outgoing: 226 to 227 °C

Incoming: Give the reported value of melting point for this record: Cc1cc(CNC(=O)c2ccnc(-n3cnn(Cc4ccc(F)c(F)c4)c3=O)c2)no1
Outgoing: 160 to 161 °C

====

Entries and their melting point

Incoming: Give the reported value of melting point for this record: c1ccc2c(c1)C(=NOCCN1CCCCC1)c1ccccc1C1CC21 (stereo unspecified)
Outgoing: 75 to 76 °C

Incoming: Give the reported value of melting point for this record: O=C1CC(O)CC(/C=C/c2cccc(Cl)c2Cl)O1 (stereo unspecified)
Outgoing: 122 to 123 °C

Incoming: Give the reported value of melting point for this record: CN1C(=O)C(C)(C)N=C(c2ccccc2Cl)c2cc([N+](=O)[O-])cc(Cl)c21
Outgoing: 254 °C

Incoming: Give the reported value of melting point for this record: COc1cc(COc2ncccc2C=O)ccc1OCc1nc(-c2ccco2)oc1C
Outgoing: 120 to 121 °C

Incoming: Give the reported value of melting point for this record: CCOC(=O)/C(=N\OC12CC3CC(CC(C3)C1)C2)c1csc(N)n1
Outgoing: 152 to 153 °C

As a next step, examine the molecule that follows.
Incoming: Give the reported value of melting point for this record: CCOC(=O)C1CCc2c([nH]c3ccc(N(C)C)cc23)C1 (stereo unspecified)
Outgoing: 100 to 101 °C

====

Entries and their melting point

Incoming: Give the reported value of melting point for this record: CC1(C)COC(=O)N1c1nc(-c2ccc(Cl)c(F)c2)cs1
Outgoing: 140 to 142 °C

Further cases:
Incoming: Give the reported value of melting point for this record: CC12CCC3c4ccc(N)cc4CCC3C1CCC2O (centres undefined)
Outgoing: 75 to 77 °C

Incoming: Give the reported value of melting point for this record: CC[Si](CC)(CC)Oc1cccc2ncc3c(c12)CCCC3
Outgoing: 110 to 111 °C

Incoming: Give the reported value of melting point for this record: O=C(O)C(F)c1cccc(OCc2ccccc2Cl)c1OCc1ccccc1Cl (centres undefined)
Outgoing: 92 to 94 °C

Incoming: Give the reported value of melting point for this record: Cc1cn2cccc(OCc3c(Cl)ccc(S(=O)(=O)N4CCC[C@H]4C(=O)N4CCN(C(=O)c5ccc(C=NN)cc5)CC4)c3Cl)c2n1
Outgoing: 159 to 161 °C

Incoming: Give the reported value of melting point for this record: CCc1nnc2c(OC)nc3cc(Cl)ccc3n12
Outgoing: 221 to 223 °C

Incoming: Give the reported value of melting point for this record: O=C1CCC(c2ccccc2F)(c2ccccc2F)[C@@H]2CN(Cc3ccccc3)C[C@H]12 (racemic)
Outgoing: 138 °C

Incoming: Give the reported value of melting point for this record: CCc1cccc(-c2nc3ccccc3[nH]2)n1
Outgoing: 161 to 162 °C

Incoming: Give the reported value of melting point for this record: CC(C)(C)c1cc(CCc2ccccc2NC(=O)NC2CCC(C(C)(C)C)CC2)cc(C(C)(C)C)c1O (centres undefined)
Outgoing: 206 to 208 °C

Incoming: Give the reported value of melting point for this record: COc1cccc(-c2c(C(=O)O)c(=O)n(C)c3ncccc23)c1
Outgoing: 196 to 197 °C

Incoming: Give the reported value of melting point for this record: Cc1cc(C(C)(C)C)cc(C)c1C1C(=O)CC(C)(C)CC1=O
Outgoing: 224 to 249 °C

Incoming: Give the reported value of melting point for this record: COc1cc2[nH]c(=O)c3ccccc3c2cc1OC
Outgoing: 253 to 255 °C

Incoming: Give the reported value of melting point for this record: CC(=NO)c1ccc2c(c1)CCC2
Outgoing: 104 °C

Incoming: Give the reported value of melting point for this record: CCC(C=CC(C)C1CCC2C3CC=C4CC(OC(=O)NCCO)CCC4(C)C3CCC12C)C(C)C (centres undefined)
Outgoing: 172 to 173 °C

Incoming: Give the reported value of melting point for this record: O=[N+]([O-])c1ccc(NCCS(=O)(=O)NCCCOc2cccc(CN3CCCCC3)c2)cc1
Outgoing: 140 to 142 °C

Incoming: Give the reported value of melting point for this record: COc1ccc(C2COC(=O)C2CSC2CCCCC2)cc1 (centres undefined)
Outgoing: 50 to 51 °C

Incoming: Give the reported value of melting point for this record: CCc1nc(/C=C/c2cn(-c3ccccc3)nc2OCc2ccc(OCc3nc(-c4cccc(CC(=O)O)c4)oc3C)c(OC)c2)cs1
Outgoing: 154 to 155 °C

Incoming: Give the reported value of melting point for this record: Cc1cc(C(F)(F)F)nc(N(C(N)=O)c2ccccc2C(F)(F)F)n1
Outgoing: 150 to 153 °C

Incoming: Give the reported value of melting point for this record: Cc1c(Cc2ccccc2)c(=O)n2c(CN(C)Cc3ccccc3)c(-c3ccc(NC(=O)OC(C)(C)C)cc3)nc2n1Cc1c(F)cccc1F
Outgoing: 179 to 184 °C
